assay: ASC/caspase-1 reporter retest in S. cerevisiae at one dose, specificity check for NALP1 project (AID 488857); details: S. cerevisiae ASC/Caspase-1, beta-galactosidase luminescence, 24 h; at 10 µM; stronger effect = higher value
The campaign covered roughly 1,400 compounds. About 560 (40%) were called active. The set was probably picked from earlier hits. This is one part of the list.
Metric: inhibition (%)
Field format: number, assumed %, no unit text.

Compound | Metric | Unit | Recorded number
Cc1ccsc1/C=N/NC(=O)c1ccco1 | inhibition | % | 48.5
CN(CC(=O)NC(=O)NCc1ccccc1)Cc1cccc(Cl)c1Cl | inhibition | % | 43.1
C1=CC2CC1CC2CN1CCN(Cc2ccccc2)CC1 (stereo unspecified) | inhibition | % | 48.8
COc1ccc(C)cc1NC(=O)c1ccc(CN2CCN(c3ccccc3)CC2)cc1 | inhibition | % | 33.5
O=[N+]([O-])c1cc(Cc2ccccc2)cc(C=Nc2ccc(N3CCOCC3)cc2)c1O | inhibition | % | 51.5
Cc1nc(/N=C(\N)NC(=O)N2c3ccccc3Sc3ccccc32)nc2ccccc12 | inhibition | % | 53.6
O=C1c2ccsc2SCCN1Cc1c(Cl)cccc1Cl | inhibition | % | 56.2
CSc1ccccc1NC(=O)Nc1ccccc1Cl | inhibition | % | 49.8

Provide one value: measured inhibition of S=C(NCCCc1ccccc1)Nc1ccc(Cl)cc1 95.5

Provide one value: measured inhibition of CCOc1ccc(N2C(=O)CC(N)C2=O)cc1 (stereo unspecified) 70

Provide one value: measured inhibition of O=C1NC(c2ccccc2)Nc2c1sc(=S)n2-c1ccccc1 (stereo unspecified) 32.5

Provide one value: measured inhibition of Cc1cc(NC(=O)/C=C/c2ccccc2Cl)no1 51.1

Provide one value: measured inhibition of CC(C)CN=C(NS(=O)(=O)c1ccccc1)C(Cl)(Cl)Cl 51.1

Provide one value: measured inhibition of O=C(NCCCc1ccccc1)c1ccccc1O 47.4

---

experiment: ASC/caspase-1 reporter retest in S. cerevisiae at one dose, specificity check for NALP1 project (AID 488857); settings: S. cerevisiae ASC/Caspase-1, beta-galactosidase luminescence, 24 h; at 10 µM
The campaign covered roughly 1,400 compounds. About 560 (40%) were called active.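 The calls were made as follows: active = mean inhibition over duplicate tests at 10 µM above 50%; inactive = the rest.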 So high a share suggests a set chosen from earlier hits. The list shows a part of the results.
Lab note: assign the record to one of active, inactive

Reference set (3 entries):
Molecule | Qualitative label
COc1ccccc1NC(=O)Nc1ccc2c(c1)nnn2C | inactive
CS(=O)(=O)N1CCC(C(=O)Nc2ccc3c(c2)OCO3)CC1 | inactive
CC(C)c1ccc(N2C(=O)CC(Sc3ncn[nH]3)C2=O)cc1 (centres undefined) | active

Give the logged outcome of this assay for the following molecule: OC(CNCCC1C=Nc2ccccc21)Cn1c2ccc(Cl)cc2c2cc(Cl)ccc21 (centres undefined) active

---

experiment: ASC/caspase-1 reporter retest in S. cerevisiae at one dose, specificity check for NALP1 project (AID 488857); conditions: S. cerevisiae ASC/Caspase-1, beta-galactosidase luminescence, 24 h; at 10 µM; stronger effect = higher value
Hit rate of the full screen: of about 1,400 compounds, about 560 (40%) were called active. The set was probably picked from earlier hits. Some of the results follow.
Metric: inhibition (%)
Field format: number, assumed %, no unit text.

Compound structure string | Unit | inhibition
COc1ccc(N2CCN(CCNC(=O)Nc3ccc(Cl)cc3)CC2)cc1 | % | 39.5
CS(=O)(=O)N(Cc1ccccc1)c1ccc(C(=O)Nc2ccc3c(c2)OCO3)cc1 | % | 36
O=C(COc1ccc(Cl)cc1)Nc1ccc2c(c1)CCC2 | % | 71.5

Here is another compound to look at.
Provide one value: measured inhibition of CC(=O)c1ccc(NC(=O)Nc2ccc(Cl)cc2)cc1 44.4

---

assay: ASC/caspase-1 reporter retest in S. cerevisiae at one dose, specificity check for NALP1 project (AID 488857); settings: S. cerevisiae ASC/Caspase-1, beta-galactosidase luminescence, 24 h; at 10 µM
The whole screen tested about 1,400 compounds, of which about 560 (40%) were called active.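 How the source made its calls: active means mean inhibition over duplicate tests at 10 µM above 50%; inactive means the rest.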 So high a share suggests a set chosen from earlier hits. Some of the results follow.
Lab note: assign the record to one of active, inactive

Reference set (5 entries):
Molecule | Qualitative label
CCOC(=O)c1cc(-c2ccccc2)n(CCC(=O)N2CCN(c3ccccn3)CC2)c1C | inactive
O=C(OC1CCOC1=O)c1cc(-c2ccc(Br)cc2)nc2ccccc12 (stereo unspecified) | inactive
CCOC(=O)c1c(C)[nH]c(N=Nc2cccc(C)c2)c1C | inactive
C(=C\c1nc(N2CCCCCC2)c2ccccc2n1)/c1ccccc1 | active
COc1cc(CNC2CCCCCCC2)cc(Br)c1OCC#N | inactive

Shifting focus to the molecule that follows.
Give the logged outcome of this assay for the following molecule: COC(=O)c1ccc(NC(=O)c2ccccc2N(C)S(=O)(=O)c2ccccc2)cc1 active

---

experiment: ASC/caspase-1 reporter retest in S. cerevisiae at one dose, specificity check for NALP1 project (AID 488857); details: S. cerevisiae ASC/Caspase-1, beta-galactosidase luminescence, 24 h; at 10 µM; stronger effect = higher value
Among all 1,400 compounds or so, about 560 (40%) were called active. The set was probably picked from earlier hits. The list shows a part of the results.
Reported inhibition values are given for each entry in this list.
Field format: number, assumed %, no unit text.

See these solved cases before continuing.
Compound | Recorded number
COC(=O)Nc1nc(C)c(C(=O)c2ccccc2)s1 | 47.8
c1ccc(CCNc2nc(-c3cccnc3)cs2)cc1 | 45
Nc1ccc(C(=O)Nc2nc3ccccc3s2)cc1 | 75.4
Cc1cc(C)n(CCOc2ccc(Cl)cc2Cl)n1 | 56.7
Clc1ccc(Nc2ccc(NCc3ccccc3)nn2)cc1 | 85.7
CCNc1c(C(=O)O)ccc2c1C(=O)c1ccccc1C2=O | 39.5
CN1CCN(C(=O)CSc2nc3c(c(=O)n(C)c(=O)n3C)n2C)CC1 | 31.1
CC(C)OC(=O)COc1ccc(-c2ccccc2)cc1 | 47.1

Provide one value: measured inhibition of CCN(CCO)Cc1csc2ccc(Br)cc12 55.5

Provide one value: measured inhibition of COc1ccc(/C=C2/CCc3ccccc3C2=O)cc1OC 61.4

---

assay: ASC/caspase-1 reporter retest in S. cerevisiae at one dose, specificity check for NALP1 project (AID 488857); details: S. cerevisiae ASC/Caspase-1, beta-galactosidase luminescence, 24 h; at 10 µM
Hit rate of the full screen: of about 1,400 compounds, about 560 (40%) were called active.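 The calls were made as follows: active = mean inhibition over duplicate tests at 10 µM above 50%; inactive = the rest.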 So high a share suggests a set chosen from earlier hits. The list shows a part of the results.
Lab note: assign the record to one of TRUE = active, FALSE = inactive

Molecule | Qualitative label
COc1ccc(N2C(=O)C3[C@@H](C2=O)C2(Cl)C(Cl)=C(Cl)C3(Cl)C2(OC)OC)cc1 (stereo not given in full) | TRUE
O=C(CON=C1c2ccccc2-c2ccccc21)NC12CC3CC(CC(C3)C1)C2 | FALSE
COc1ccc(-c2[nH]ncc2CN2CCC(OCc3ccccn3)CC2)c(F)c1 | FALSE

Give the logged outcome of this assay for the following molecule: C/C(=N\NC(=O)Cc1csc(N2CCOCC2)n1)c1ccccc1 FALSE

Give the logged outcome of this assay for the following molecule: N/C(Cc1cccs1)=N\OC(=O)COc1ccccc1Cl TRUE

Give the logged outcome of this assay for the following molecule: CC1CC(C)CN(S(=O)(=O)c2ccc(C(=O)NCc3ccc4c(c3)OCO4)cc2)C1 (stereo not given) FALSE

Give the logged outcome of this assay for the following molecule: CCOC(=O)c1c(/N=C/c2cc(OC)cc([N+](=O)[O-])c2O)sc(C)c1C TRUE

Give the logged outcome of this assay for the following molecule: CCN1/C(=C\c2ccc3ccccc3[n+]2CC)Sc2cc(C)ccc21 TRUE

Give the logged outcome of this assay for the following molecule: Cc1ccc(/C(N)=N/OC(=O)c2ccc(Cl)cc2Cl)cc1 FALSE

Give the logged outcome of this assay for the following molecule: CC1CCN(c2nc(NCc3ccco3)nc(N)c2[N+](=O)[O-])CC1 TRUE

Give the logged outcome of this assay for the following molecule: O=C1C2C(C(=O)N1/N=C/c1cc(Br)cc([N+](=O)[O-])c1O)C1C=CC2C12CC2 (stereo not given) TRUE

Give the logged outcome of this assay for the following molecule: O=C(Nc1cccc(F)c1)c1ccc(CSc2ccccc2)o1 FALSE

Give the logged outcome of this assay for the following molecule: C/C(=N/Nc1ccc([N+](=O)[O-])cc1)c1ccc(C)cc1C TRUE

Give the logged outcome of this assay for the following molecule: Cc1nc2cc(C(=O)NCc3ccc4c(c3)OCO4)ccc2n1-c1ccc(Br)cc1 TRUE

Give the logged outcome of this assay for the following molecule: CCN1/C(=C/c2ccc3ccc(C)cc3[n+]2CC)Sc2ccccc21 TRUE

Give the logged outcome of this assay for the following molecule: Nc1nc(NCc2ccco2)nc(N2CCCCCC2)c1[N+](=O)[O-] TRUE

Give the logged outcome of this assay for the following molecule: COc1ccc(Cc2ccc(OC)c(N)c2)cc1N TRUE

Give the logged outcome of this assay for the following molecule: O=S(=O)(Nc1ccncc1Cl)c1ccccc1 FALSE

Give the logged outcome of this assay for the following molecule: COc1ccc(NC(=O)c2sc(N3CCOCC3)nc2-c2ccccc2)c(OC)c1 TRUE

Give the logged outcome of this assay for the following molecule: Cc1cccc(/C=C/C(=O)c2ccc(NC3=NCCCS3)cc2)c1 TRUE
